ED50 values for the molecules below.
# Measurement notes: Cataleptogenic activity
# Run conditions: rat, in vivo, ip; Wistar female rats; from total points of the maximum appearance of catatonia

# Molecule, ED50
data = [
    ("Cl.Cl.O.O=C1N=C2CCCCN2C12CCN(CCCN1c3ccccc3CCc3ccccc31)CC2 [C]", "> 50 mg/kg"),
    ("CN(C)CCCN1c2ccccc2Sc2ccc(Cl)cc21 [Chlorpromazine, reference compound]", "12 mg/kg"),
    ("Cl.Cl.O.O=C1NC2CCCCN2C12CCN(CCCN1c3ccccc3CCc3ccc(Cl)cc31)CC2 (stereo not shown) [B]", "> 50 mg/kg"),
    ("Cl.Cl.O.O=C1NC2CCCCN2C12CCN(CCCN1c3ccccc3CCc3ccccc31)CC2 (stereo not shown) [A]", "> 50 mg/kg"),
]
